Below is a list of entries, each paired with its recorded ratio of amounts bound (Z=Y/X) value.
biological target: T1, CD3 epsilon homodimer protein (UniProt P07766 23-126); test: SPR Biacore T200, CD3e homodimer on chip, vs unaltered GLS3000 antibody
T1 construct: also called CD3 (CD3 epsilon)
T1 sequence (P07766 23-126): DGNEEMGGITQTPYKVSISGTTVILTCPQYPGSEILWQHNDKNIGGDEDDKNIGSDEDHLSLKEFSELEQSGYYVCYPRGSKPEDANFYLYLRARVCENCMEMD
Number only, please.

GLS3000 S27aP (antibody, name in Kabat numbering, V domains shown, one-arm IgG as m2) VH: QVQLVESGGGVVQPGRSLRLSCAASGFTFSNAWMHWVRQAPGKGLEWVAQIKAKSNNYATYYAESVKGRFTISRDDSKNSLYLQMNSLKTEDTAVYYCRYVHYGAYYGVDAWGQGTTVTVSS VL: DIVMTQSPLSLPVTPGEPASISCRSSQPLVHSNRNTYLHWYQQKPGQAPRLLIYKVSNRFSGVPDRFSGSGSGTDFTLKISRVEAEDVGVYYCGQGTQVPYTFGQGTKLEIK	0.99
GLS3000 Q93S (antibody, name in Kabat numbering, V domains shown, one-arm IgG as m2) VH: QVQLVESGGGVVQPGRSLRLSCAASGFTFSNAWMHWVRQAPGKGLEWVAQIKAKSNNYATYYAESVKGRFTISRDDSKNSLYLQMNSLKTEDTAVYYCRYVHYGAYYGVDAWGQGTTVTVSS VL: DIVMTQSPLSLPVTPGEPASISCRSSQSLVHSNRNTYLHWYQQKPGQAPRLLIYKVSNRFSGVPDRFSGSGSGTDFTLKISRVEAEDVGVYYCGQGTSVPYTFGQGTKLEIK	0.96
GLS3000 N28P (antibody, name in Kabat numbering, V domains shown, one-arm IgG as m2) VH: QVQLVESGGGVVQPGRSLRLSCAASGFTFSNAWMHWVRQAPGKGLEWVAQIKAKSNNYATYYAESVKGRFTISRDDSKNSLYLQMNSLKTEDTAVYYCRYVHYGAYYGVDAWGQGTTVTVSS VL: DIVMTQSPLSLPVTPGEPASISCRSSQSLVHSPRNTYLHWYQQKPGQAPRLLIYKVSNRFSGVPDRFSGSGSGTDFTLKISRVEAEDVGVYYCGQGTQVPYTFGQGTKLEIK	0.36
GLS3000 S56L (antibody, name in Kabat numbering, V domains shown, one-arm IgG as m2) VH: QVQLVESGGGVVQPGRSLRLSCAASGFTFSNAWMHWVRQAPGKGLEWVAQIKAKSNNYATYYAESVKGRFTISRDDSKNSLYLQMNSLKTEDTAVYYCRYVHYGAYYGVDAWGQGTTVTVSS VL: DIVMTQSPLSLPVTPGEPASISCRSSQSLVHSNRNTYLHWYQQKPGQAPRLLIYKVSNRFLGVPDRFSGSGSGTDFTLKISRVEAEDVGVYYCGQGTQVPYTFGQGTKLEIK	1.02

Would you kindly look at the next entry?
Request: Which ratio of amounts bound (Z=Y/X) value is on record for GLS3000 V94R (antibody, name in Kabat numbering, V domains shown, one-arm IgG as m2) VH: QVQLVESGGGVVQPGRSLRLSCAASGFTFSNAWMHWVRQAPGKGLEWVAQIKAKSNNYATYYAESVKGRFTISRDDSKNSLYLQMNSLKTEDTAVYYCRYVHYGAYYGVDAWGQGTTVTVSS VL: DIVMTQSPLSLPVTPGEPASISCRSSQSLVHSNRNTYLHWYQQKPGQAPRLLIYKVSNRFSGVPDRFSGSGSGTDFTLKISRVEAEDVGVYYCGQGTQRPYTFGQGTKLEIK ?
Result: 0.66

Data origin, for the record: patent US20210388087A1
